Tested on: BV-2
method-summary: Anti-neuroinflammatory activity against mouse BV2 cells assessed as inhibition of LPS-induced nitric oxide production after 24 hrs by Griess assay
Assay type: functional, cell-based
recorded-conditions: BV-2, 24 h
endpoint-label: log10 IC50 (log10 of the value in µM)
In plain terms, each number is the log10 of measured IC50 in µM.

Sample answers from the record:
INSERT INTO measurements (molecule, endpoint_label, meas_value) VALUES
  ('CC1(C)CC[C@]2(C(=O)O)CC[C@]3(C)[C@H](CC[C@@H]4[C@@]5(C)CC[C@H](O)C(C)(C)[C@@H]5CC[C@]43C)[C@H]2[C@H]1O', 'log10 IC50', 1.36),
  ('COc1ccc2c(=O)c(OC)c(-c3ccc(OC)c(OC)c3)oc2c1 [FISETIN TETRAMETHYL ETHER]', 'log10 IC50', 1.45),
  ('CC1(C)C=Cc2c(ccc(C(=O)/C=C/c3ccc4c(c3)OCO4)c2O)O1', 'log10 IC50', 0.82),
  ('COc1ccc(OC)c(-c2cc(=O)c3ccc4occc4c3o2)c1', 'log10 IC50', 1.94),
  ('CC1(C)C=Cc2c(ccc(C(=O)/C=C/c3ccccc3)c2O)O1 [LONCHOCARPIN]', 'log10 IC50', 0.55);

Q: Report log10 IC50, nothing else, for this molecule: CC1(C)C=Cc2c(ccc3c2O[C@H](c2ccc4c(c2)OCO4)CC3=O)O1
A: 1.90

Q: Note log10 IC50 for the molecule shown: O=c1cc(-c2ccc3c(c2)OCO3)oc2c1ccc1occc12 [PONGAGLABRONE]
A: 1.66
